Assay: NCI Yeast Anticancer Drug Screen. Data for the mec2-1 strain (AID 157)
Settings: S. cerevisiae mec2-1 strain, at 50.0 µM, stronger effect = higher value
Compounds without any hit were thinned out: in the full panel of roughly 79,000, 15% have a hit.
Assign growth inhibition to each entry below.
Give bare numbers, in %.

| Compound | Measure | Units symbol | Measured value |
| --- | --- | --- | --- |
| O=C1OC2c3ccccc3CC1C2CO (stereo not drawn) | growth inhibition | % | 4.7 |
| CC(C)=CCNc1nc(Cl)nc2nc[nH]c12 | growth inhibition | % | -8 |
| NC(=O)NOCC(N)C(=O)O (stereo not drawn) | growth inhibition | % | 1.8 |
| Cc1ccc([N+](=O)[O-])cc1NC(=O)C(=O)Cc1occc(=O)c1O | growth inhibition | % | -6 |
| C=C(C)C(=O)OCCCCC | growth inhibition | % | 5.15 |
| NC(CCC1CCCCC1)C(=O)O (stereo not drawn) | growth inhibition | % | 6.8 |
| NNC(=S)N/N=C(\c1nc2ccc(Cl)cc2[nH]c1=O)C(O)c1cccc([N+](=O)[O-])c1 (stereo not drawn) | growth inhibition | % | 27.6 |
| CCCCNC(=O)Nc1nc2ccccc2s1 | growth inhibition | % | 2.15 |

Each compound below has a reported value. Please supply its growth inhibition.
1. CNC1C(CO)OC(n2cnc3c(N)ncnc32)C1O (stereo not drawn)
2. O=C(c1ccccc1)C(O)(Cc1ccccc1)c1ccccc1 (stereo not drawn)
3. CCOC(=O)CC(=O)Nc1cccc2sc3ncccc3c(=O)c12
4. O=C1CC2C(=O)N(Cc3ccccc3)C1C=C2S(=O)(=O)c1ccccc1 (stereo not drawn)
5. CN1CCc2sccc2C(c2ccccc2)O1 (stereo not drawn)
6. CC(=O)C(CN1CCOCC1)C(C)(C)O (stereo not drawn)

Found:
-9.55
17.2
-52.6
21.6
16.1
31.8

Below is a list of compounds. For each, state its recorded growth inhibition.
1. O=C1C(=O)N(c2cc(Cl)ccc2Cl)C(=O)C(=O)C1c1nc2ccccc2s1
2. CCCCCCCCCC[n+]1cccc(C(N)=O)c1
3. O=C(O)c1ccccc1SC1OC(=O)c2ccccc21 (stereo not drawn)
4. CN(C)c1nc(=O)c2ccccc2o1
5. COc1ccc(OC)c(NC(=O)Nc2cccc(C(C)=O)c2)c1

Found:
1. 18.6
2. -17.2
3. -8.75
4. -14.1
5. 33.9

###

Field: growth inhibition. Provide a value for each of the compounds that follow.
Experiment: NCI Yeast Anticancer Drug Screen. Data for the cln2 rad14 strain (AID 165);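 also: 0% = growth equal to vehicle treated cultures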
Conditions: S. cerevisiae cln2 rad14 strain, at 50.0 µM, stronger effect = higher value
The panel holds about 79,000 compounds, 15% with a hit somewhere; the sample as a whole holds those more often.
Answers are plain numbers, in %.

Examples with their reported growth inhibition follow.
| Compound | Measure | Measured value |
| --- | --- | --- |
| COc1ccc(N2C(=O)/C(=C\c3ccc(N(CCC#N)CCC#N)cc3)N=C2COc2ccccc2)cc1 | growth inhibition | 8.7 |
| CS/C(=C/c1ccc2ccccc2[n+]1C)N1CCN(C)CC1 | growth inhibition | -12.9 |
| COc1ccc2[nH]c(C)cc2c1CN | growth inhibition | -24.9 |

Please state, for each entry, its recorded growth inhibition.
1. O=C1CCCCc2ccccc21
2. CCOC1(OCC)CCC2(CC1)c1ccccc1-c1ccccc12
3. CC(C)C(=O)Nc1cccc([N+](=O)[O-])c1
4. N#Cc1cc2ccccc2c2ccccc12
5. Cc1[nH]c2ccccc2c1CC1CC(=O)OC1=O (stereo unspecified)
6. COC(=O)C1CCc2c(OC)ccc(OC)c2C1=O (stereo unspecified)

Found:
[-7, 1.15, -24.6, 12.3, 6.3, 20.5]
